target: WT RsbU45–313 (Chlamydia trachomatis)
Readout kind: pKd
Keep it numeric: pKd is minus log10 of the concentration in mol/L.

Inquiry: Can you look up the measured pKd of O=C(O)CCC(=O)C(=O)O [alpha-ketoglutarate] for me?
Reply text: 3.38

###

biological target: RsbU45–313 (Chlamydia trachomatis); assay: biochemical; assay type: binding; conditions: read-out: KD (ITC); single trial; 30 μM protein, PBS; data not shown
Readout kind: Kd (µM)
Answer format: numeric, µM implied, no suffix.

Inquiry: Form entry - test system: RsbU45–313 (Chlamydia trachomatis); read-out: Kd; compound: O=C(O)CCC(=O)C(=O)O [alpha-ketoglutarate]
Reply text: 25.8
